# System: RARg homodimer (NR concentration 270 nM)
# experiment: PBM binding z-score (relative to random genomic background probes); higher = stronger binding; sequences stand for … in GC…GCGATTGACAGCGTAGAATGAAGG
PBM binding z-score values by entry
measurement.kind: PBM binding z-score

sequence_string=TTACCAAGGTGAGGGTCGTTGATCCCTCTGTAGA measurement_kind="PBM binding z-score" observed_result=0.443
sequence_string=CCTGCTATGTCAATGGTCAGCTAAAGCAGCTCGC measurement_kind="PBM binding z-score" observed_result=0.0986
sequence_string=ACTAGCAGGCGAAGTTTGGGTCACTCAAACAAAG measurement_kind="PBM binding z-score" observed_result=0.54
sequence_string=TGAATGAGGTCATAAGATCAGGGAACGTTGCAAA measurement_kind="PBM binding z-score" observed_result=5
sequence_string=CAAACTAGGTCACCGGAACGTCAAAGTCCGCATG measurement_kind="PBM binding z-score" observed_result=5.62
sequence_string=CCGACTGGGGCAAGGTTACCATGACGCACAGCCA measurement_kind="PBM binding z-score" observed_result=1.09
sequence_string=ATCTCTAGGTAAAGATCGTTCAGTGAATGCAAAT measurement_kind="PBM binding z-score" observed_result=0.231
sequence_string=TGTCACAGTTCAAAGGTAACGTAAGTATCCACAC measurement_kind="PBM binding z-score" observed_result=2.54
